assayExplanation: Selectivity index, ratio of IC50 for human MRC5 cells to IC50 for chloroquine/mefloquine-resistant Plasmodium falciparum SRIV35
Type: toxicity, cell-based
condition: read-out: Ratio IC50
endpoint: selectivity ratio
Answers are plain numbers.

                                   compound           endpoint  observed
0       COc1ccc2nc3c4cc(Cl)ccc4n(C)cc-3c2c1  selectivity ratio      13.7
1  Cn1cc2c3cc(Br)ccc3nc-2c2cc(OC(F)(F)F)ccc21  selectivity ratio       804
2     Cn1cc2c3ccc4ccccc4c3nc-2c2cc(Cl)ccc21  selectivity ratio      36.3
3    Cc1cc(Br)cc2c3cn(C)c4ccc(Cl)cc4c-3nc12  selectivity ratio      63.2
4        Cn1cc2c3cc(Br)ccc3nc-2c2ccc(F)cc21  selectivity ratio       317

Moving on to another compound below.
Q: For Cn1cc2c3ccccc3nc-2c2ccccc21 [ISOCRYPTOLEPINE] , what is its reported selectivity ratio?
Ans: 18
